Cited source for all entries: patent US20260216294A1

- System: L6-myotubes
- assay-name: Glucose uptake in differentiated L6-myotubes (Biological Example 2)
- Type: cell-based
- run-conditions: glucose uptake in differentiated L6-myotubes; compound at 10 μM, activity relative to isoproterenol at 10 μM; read-out: Biological example 2 (GU)
experimental-readout: Emax at 10 µM

1. CC12CC(C1)[C@@H]([C@H](O)c1cccc(N)c1F)N2 [Compound 244]    50 to 75%
2. CC(C)(CC[C@H]1CC[C@H](O)CC1)NC[C@H](O)c1ccccc1F [Compound 319]    > 75%
3. CS(=O)(=O)N[C@H]1CC[C@@H](C[C@@H]2CC[C@H]([C@@H](O)c3cccc(F)c3)N2)CC1 [Compound 511]    25 to 50%
4. O[C@@H](CNCC[C@H]1CC[C@@H](OCc2ccccc2)CC1)c1cccc(F)c1 [Compound 287]    50 to 75%
5. CC(C)(C[C@H]1CC[C@@H](NS(C)(=O)=O)CC1)NC[C@H](O)c1cccc(C#N)n1 [Compound 422]    50 to 75%
6. CC(C)(C[C@H]1CC[C@H](N)CC1)NC[C@H](O)c1cncc(F)c1 [Compound 359]    > 75%
7. CC(C)(CC[C@H]1CC[C@H](O)CC1)NC[C@H](O)c1cncc(F)c1 [Compound 289]    25 to 50%
8. O[C@@H](c1cncc(F)c1)[C@H]1CC[C@H](Cc2ccc(Cl)cc2)N1 [Compound 405]    > 75%
9. CC12CC(C1)[C@@H]([C@H](O)c1ccccc1F)N2 [Compound 213]    > 75%
10. CC(=O)N(Cc1ccccc1)[C@H]1CC[C@@H](C[C@@H]2CC[C@H]([C@H](O)c3cccc(F)c3)N2)CC1 [Compound 480]    < 25%
11. COc1ccc(CC23CCC([C@H](O)c4cccc(F)c4)(CC2)N3)cc1 [Compound 401]    > 75%
12. O[C@H](c1cccc(F)c1)[C@H]1CC[C@H](Cc2ccc(Cl)cc2)N1 [Compound 393]    > 75%
13. CC(C)CS(=O)(=O)N[C@H]1CC[C@H](CC(C)(C)NC[C@H](O)c2cncc(F)c2)CC1 [Compound 526]    50 to 75%
14. CC(C)(C[C@H]1CC[C@H](NC(=O)C2CC2)CC1)NC[C@H](O)c1cccc(F)c1 [Compound 432]    > 75%
15. COC(=O)[C@H]1CC[C@@H](CC(C)(C)NC[C@H](O)c2cncc(F)c2)CC1 [Compound 322]    > 75%
16. CC12CC(C1)[C@@H]([C@@H](O)c1cccc(N)c1F)N2 [Compound 242]    50 to 75%

* * *

- Tested on: L6-myotubes
- assay-name: Measurement of intracellular cAMP levels in differentiated L6-myotubes (Biological Example 3)
- Type: cell-based
- run-conditions: 0.25 h, intracellular cAMP in differentiated L6-myotubes; compound at 10 μM, activity relative to isoproterenol at 10 μM
Listing of entries alongside the reported Emax at 10 µM.
experimental-readout: Emax at 10 µM

1) CO[C@H]1CC[C@@H](C(C)(C)NC[C@H](O)c2cccc(F)c2)CC1 [Compound 251]    < 25%
2) CCC[C@H]1CCCC[C@@H]([C@@H](O)c2cncc(F)c2)N1 [Compound 235]    < 25%
3) CCC[C@@H]1CCCC[C@H]([C@@H](O)c2cncc(F)c2)N1 [Compound 218]    < 25%
4) O[C@@H](CNC[C@H]1CC[C@@H](O)CC1)c1cncc(F)c1 [Compound 269]    < 25%
5) CC(C)(C[C@H]1CC[C@H](NS(C)(=O)=O)CC1)NC[C@H](O)c1cccc(F)c1 [Compound 382]    25 to 50%
6) O[C@@H](c1cncc(F)c1)C12CCC(CCCc3ccccc3)(CC1)N2 [Compound 531]    < 25%
7) CO[C@@H]1CCC[C@H](C(C)(C)NC[C@H](O)c2cccc(F)c2)C1 [Compound 255]    < 25%
8) CC(C)(CC[C@H]1CC[C@@H](O)CC1)NC[C@H](O)c1cncc(F)c1 [Compound 296]    < 25%
9) CC(C)(C[C@H]1CC[C@H](N)CC1)NC[C@@H](O)c1cccc(C#N)n1 [Compound 415]    < 25%
10) CO[C@H]1CC[C@@H](CCC(C)(C)NC[C@H](O)c2cccc(F)c2)CC1 [Compound 264]    25 to 50%
11) CC(C)(CC[C@H]1CC[C@H](O)CC1)NC[C@H](O)c1cncc(F)c1 [Compound 289]    < 25%
12) CO[C@H]1CC[C@@H](CCCNC[C@H](O)c2cncc(F)c2)CC1 [Compound 260]    < 25%
13) CO[C@H]1CC[C@H](CNC[C@H](O)c2cncc(F)c2)CC1 [Compound 229]    < 25%
14) O[C@@H](CNC[C@H]1CC[C@@H](O)CC1)c1cccc(F)c1 [Compound 268]    < 25%
15) CC(C)(C[C@H]1CC[C@H](C(=O)O)CC1)NC[C@H](O)c1cncc(F)c1 [Compound 356]    < 25%
16) CO[C@H]1CCC[C@@H](C(C)(C)NC[C@H](O)c2cncc(F)c2)C1 [Compound 270]    50 to 75%
17) CO[C@H]1CC[C@H](C[C@H]2CC[C@H]([C@@H](O)c3cncc(F)c3)N2)CC1 [Compound 340]    < 25%
18) CO[C@H]1CC[C@@H](CC(C)(C)NC[C@H](O)c2cccc(F)c2)CC1 [Compound 247]    < 25%
19) CN(C)S(=O)(=O)[C@H]1CC[C@H](CC(C)(C)NC[C@H](O)c2cccc(F)c2)CC1 [Compound 464]    25 to 50%
20) CC(C)(NC[C@H](O)c1cncc(F)c1)[C@H]1CC[C@@H](C(=O)O)CC1 [Compound 323]    50 to 75%
21) O[C@H](c1cncc(F)c1)C12CCC(COCc3ccc(F)cc3)(CC1)N2 [Compound 443]    25 to 50%
22) CS(=O)(=O)N(Cc1ccccc1)c1cccc(CC23CCC([C@H](O)c4cccc(F)c4)(CC2)N3)c1 [Compound 513]    < 25%
23) CC(C)(C[C@H]1CC[C@@H](NS(=O)(=O)C(F)(F)F)CC1)NC[C@H](O)c1cccc(F)c1 [Compound 493]    < 25%
24) CO[C@H]1CC[C@@H](CCC(C)(C)NC[C@H](O)c2cncc(F)c2)CC1 [Compound 266]    < 25%
25) O[C@H](c1cccc(F)c1)C12CCC(COc3ccc(Cl)cc3)(CC1)N2 [Compound 441]    < 25%
26) O[C@H](c1cncc(F)c1)[C@H]1CC[C@H](Cc2ccc(Cl)cc2)N1 [Compound 406]    < 25%
27) CC12CC(C1)[C@@H]([C@@H](O)c1cncc(F)c1)N2 [Compound 221]    < 25%
28) CC(=O)N[C@H]1CC[C@@H](CNC[C@H](O)c2cncc(F)c2)CC1 [Compound 310]    < 25%
29) CC(C)(NC[C@H](O)c1cccc(F)c1)[C@H]1CC[C@@H](OCC(=O)O)CC1 [Compound 408]    < 25%
30) CC(=O)N(Cc1ccccc1)[C@H]1CC[C@H](C[C@@H]2CC[C@H]([C@H](O)c3cccc(F)c3)N2)CC1 [Compound 482]    < 25%
31) COc1ccc(C[C@@H]2CC[C@H]([C@@H](O)c3cccc(F)c3)N2)cc1 [Compound 372]    < 25%
32) CC1(C)C[C@@H]([C@@H](O)c2cncc(F)c2)N1 [Compound 215]    < 25%
33) CN([C@H]1CC[C@@H](CC(C)(C)NC[C@H](O)c2cccc(F)c2)CC1)S(C)(=O)=O [Compound 498]    < 25%

* * *

Listing of entries alongside the reported Emax at 10 µM.
- Tested on: L6-myotubes
- assay-name: Glucose uptake in differentiated L6-myotubes (Biological Example 2)
- Format: cell-based
- run-conditions: glucose uptake in differentiated L6-myotubes; compound at 10 μM, activity relative to isoproterenol at 10 μM; read-out: Biological example 2 (GU)
experimental-readout: Emax at 10 µM

1) CC(C)(C)NC[C@H](O)c1cccc(C(F)(F)F)n1    > 75%
2) CS(=O)(=O)N[C@H]1CC[C@@H](C[C@@H]2CC[C@H]([C@H](O)c3cccc(F)c3)N2)CC1    > 75%
3) CNS(=O)(=O)[C@H]1CC[C@H](CC(C)(C)NC[C@H](O)c2cccc(F)c2)CC1    > 75%
4) CO[C@H]1CC[C@@H](CCNC[C@H](O)c2cccc(F)c2)CC1    50 to 75%
5) CO[C@H]1CC[C@@H](CC(C)(C)NC[C@H](O)c2cccc(F)c2)CC1    > 75%
6) CCOC(=O)CO[C@H]1CC[C@@H](C(C)(C)NC[C@H](O)c2cccc(F)c2)CC1    50 to 75%
7) CC(C)(NC[C@H](O)c1cccc(F)c1)[C@H]1CC[C@@H](OCc2ccccc2)CC1    > 75%
8) CO[C@H]1CCC[C@@H](C(C)(C)NC[C@H](O)c2cccc(F)c2)C1    > 75%
